Source of measurements: paper PMC10397247

- MEASURED_TARGET: T1, 4H497-AA
- T1 chain: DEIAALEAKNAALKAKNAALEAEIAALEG
- PROTOCOL: two-hybrid library CCmax;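 further: natural log of median RNA to DNA barcode read ratio; higher means stronger binding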
- TEST_CONTEXT: mean of both orientations
MEASURED_QUANTITY: interaction score

Solved cases below.
BINDER | MEASURED_QUANTITY | READING
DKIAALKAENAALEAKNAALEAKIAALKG [4H2742-AA] | interaction score | 2.42
DEIAALEAKNAALKAENAALKAKIAALKG [4H478-AA] | interaction score | -0.909
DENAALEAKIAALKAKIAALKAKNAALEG [4H1391-AA] | interaction score | -1.59
DKNAALKAKIAALKAKIAALEAENAALEG [4H3939-AA] | interaction score | -1.92
DKNAALKAKIAALKAEIAALKAKNAALKG [4H3920-AA] | interaction score | -1.9

P = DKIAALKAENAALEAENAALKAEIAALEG [4H2713-AA]
Q = DEIAALEAKNAALEAKIAALKAENAALKG [4H428-AA]
Could you tell me which of these two has the smaller interaction score figure? First: P Second: Q Answer by quoting the chosen item's label.
Q
(Q: -1.47, P: 0.0354)
